biological target: hNTS2 (Homo sapiens, UniProt O95665); construct: expressed in transfected cells; host or cells: CHO-K1; assay: Radioligand competition binding with [3H]NT, membranes of CHO-K1 cells expressing hNTS2; conditions: Table 2; read-out: hNTS2 Geometric Mean ∀ SEM (equilibrium dissociation constant Kd)
Sequence (O95665 whole entry): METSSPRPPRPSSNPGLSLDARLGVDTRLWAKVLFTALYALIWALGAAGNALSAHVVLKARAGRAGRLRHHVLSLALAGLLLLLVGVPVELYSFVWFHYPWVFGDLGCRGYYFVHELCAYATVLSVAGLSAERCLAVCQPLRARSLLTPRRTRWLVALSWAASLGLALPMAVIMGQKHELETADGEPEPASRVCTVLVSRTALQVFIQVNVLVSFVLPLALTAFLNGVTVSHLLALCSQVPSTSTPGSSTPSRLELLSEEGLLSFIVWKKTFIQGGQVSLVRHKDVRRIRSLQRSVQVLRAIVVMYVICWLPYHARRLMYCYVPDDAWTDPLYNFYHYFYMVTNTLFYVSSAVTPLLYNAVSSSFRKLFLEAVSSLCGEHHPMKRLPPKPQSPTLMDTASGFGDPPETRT
Where a SMILES comes first, the peptide text is derived from it. [ ]: non-standard residue; d: D form. Ala(indol-4-yl) = N[C@@H](Cc1cccc2[nH]ccc12)C(=O)O; Tle = CC(C)(C)[C@H](N)C(=O)O
Listed below: pKd values for each entry.
Please express pKd as -log10 of the molar concentration.

Use these answered entries as a reference point.
CC(C)C[C@H](NC(=O)[C@@H](NC(=O)[C@H](Cc1c[nH]c2ccccc12)NC(=O)[C@@H]1CCCN1C(=O)[C@H](CCCNC(=N)N)NC(=O)[C@H](N)CCCCN)C(C)(C)C)C(=O)O [NT66T, [D-Lys^8,L-Trp^11,tert-Leu^12]NT(8-13)] (H-[dK]RPW[Tle]L-OH; N-terminus and C-terminus assumed); 7.74
CC[C@H](C)[C@H](NC(=O)[C@H](Cc1cccc2[nH]ccc12)NC(=O)[C@@H]1CCCN1C(=O)[C@H](N)CCCCN)C(=O)N[C@@H](CC(C)C)C(=O)O [NT73, [D-Lys^9,L-neo-Trp^11]NT(9-13)] (H-[dK]P[Ala(indol-4-yl)]IL-OH; N-terminus and C-terminus assumed); 6.79

Here's the next entry for you.
Q. Any idea what its pKd is? The compound is CC[C@H](C)[C@H](NC(=O)[C@H](Cc1cccc2[nH]ccc12)NC(=O)[C@@H]1CCCN1C(=O)[C@H](CCCNC(=N)N)NC(=O)[C@H](N)CCCCN)C(=O)N[C@@H](CC(C)C)C(=O)O [NT67L, [D-Lys^8,L-neo-Trp^11]NT(8-13)] (H-[dK]RP[Ala(indol-4-yl)]IL-OH; N-terminus and C-terminus assumed)
A. 8.91

---

biological target: hNTS1 (Homo sapiens, UniProt P30989); construct: expressed in transfected cells; host or cells: CHO-K1; assay: Radioligand competition binding with [3H]NT, membranes of CHO-K1 cells expressing hNTS1; conditions: read-out: hNTS1 Geometric Mean ∀ SEM (equilibrium dissociation constant Kd)
Sequence (P30989 whole entry): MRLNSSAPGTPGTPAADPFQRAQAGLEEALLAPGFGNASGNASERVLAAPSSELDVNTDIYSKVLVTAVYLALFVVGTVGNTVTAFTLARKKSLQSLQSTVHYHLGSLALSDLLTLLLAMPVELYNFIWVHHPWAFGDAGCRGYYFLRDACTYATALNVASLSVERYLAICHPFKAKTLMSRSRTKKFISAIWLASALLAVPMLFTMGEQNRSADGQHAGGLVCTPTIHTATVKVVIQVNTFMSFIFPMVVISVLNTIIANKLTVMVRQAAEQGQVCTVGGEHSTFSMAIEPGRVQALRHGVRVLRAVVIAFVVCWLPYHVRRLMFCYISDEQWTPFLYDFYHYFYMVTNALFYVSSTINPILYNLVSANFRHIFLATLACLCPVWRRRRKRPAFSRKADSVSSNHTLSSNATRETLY
Where a SMILES comes first, the peptide text is derived from it. [ ]: non-standard residue; d: D form. Ala(indol-4-yl) = N[C@@H](Cc1cccc2[nH]ccc12)C(=O)O; 1Nal = N[C@@H](Cc1cccc2ccccc12)C(=O)O; NMeR = CN[C@@H](CCCNC(=N)N)C(=O)O; pGlu = O=C1CC[C@@H](C(=O)O)N1; Tle = CC(C)(C)[C@H](N)C(=O)O; dOrn = NCCC[C@@H](N)C(=O)O; Orn = NCCC[C@H](N)C(=O)O
Quick reference for Kd among some compounds
Report only the number, with the unit nM understood.

CC[C@H](C)[C@H](NC(=O)[C@H](Cc1ccc(O)cc1)NC(=O)[C@@H]1CCCN1C(=O)[C@H](CCCN)NC(=O)[C@H](N)CCCN)C(=O)N[C@@H](CC(C)C)C(=O)O [NT27, [D-Orn^8,L-Orn^9]NT(8-13)]; 3.6

Q. Dear colleague, I am looking for the recorded Kd of the following compound: CC[C@H](C)[C@H](NC(=O)[C@H](Cc1ccc(O)cc1)NC(=O)[C@@H]1CCCN1C(=O)[C@@H](N)CCCN)C(=O)N[C@@H](CC(C)C)C(=O)O [NT34, [L-Orn^9]NT(9-13)] (H-[Orn]PYIL-OH; N-terminus and C-terminus assumed)
A. 300

Q. Give its Kd value. Item: CC[C@H](C)[C@H](NC(=O)[C@H](Cc1ccc(O)cc1)NC(=O)[C@@H]1CCCN1C(=O)[C@@H](CCCN)NC(=O)[C@@H](N)CCCN)C(=O)N[C@@H](CC(C)C)C(=O)O [NT26, [L-Orn^8,D-Orn^9]NT(8-13)]
A. 360

Q. Give the measured Kd of CN[C@@H](CCCNC(=N)N)C(=O)N[C@H](CCCN)C(=O)N1CCC[C@H]1C(=O)N[C@@H](Cc1c[nH]c2ccccc12)C(=O)N[C@H](C(=O)N[C@@H](CC(C)C)C(=O)O)C(C)(C)C [NT78T] (H-[NMeR][dOrn]PW[Tle]L-OH; N-terminus and C-terminus assumed) .
A. 1400

Q. Endpoint output: Kd of CC[C@H](C)[C@H](NC(=O)[C@H](Cc1ccc(O)cc1)NC(=O)[C@@H]1CCCN1C(=O)[C@@H](CCCNC(=N)N)NC(=O)[C@@H](N)CCCCN)C(=O)N[C@@H](CC(C)C)C(=O)O [NT16, [L-Lys^8,D-Arg^9]NT(8-13)] (H-K[dR]PYIL-OH; N-terminus and C-terminus assumed) . Value?
A. 33

Q. Bench note: what Kd did CN[C@@H](CCCNC(=N)N)C(=O)N[C@H](CCCN)C(=O)N1CCC[C@H]1C(=O)N[C@@H](Cc1cccc2[nH]ccc12)C(=O)N[C@H](C(=O)N[C@@H](CC(C)C)C(=O)O)C(C)(C)C [NT78] (H-[NMeR][dOrn]P[Ala(indol-4-yl)][Tle]L-OH; C-terminus assumed) show?
A. 1300

Q. Consider the compound CC[C@H](C)[C@H](NC(=O)[C@H](Cc1cccc2ccccc12)NC(=O)[C@@H]1CCCN1C(=O)[C@H](CCCNC(=N)N)NC(=O)[C@H](CCCNC(=N)N)NC(=O)[C@@H]1CCCN1C(=O)[C@H](CCCCN)NC(=O)[C@H](CC(N)=O)NC(=O)[C@H](CCC(=O)O)NC(=O)[C@H](Cc1ccc(O)cc1)NC(=O)[C@H](CC(C)C)NC(=O)[C@@H]1CCC(=O)N1)C(=O)N[C@@H](CC(C)C)C(=O)O [NT62, [L-3,1-Nal^11]NT(1-13)] ([pGlu]LYENKPRRP[1Nal]IL-OH; C-terminus assumed) and give its measured Kd.
A. 8.4

Data provenance: patent US20110263507A1
